Tested on: human APOE RNA
Assay: Activity in APOE C57BL/6NTac-Apoeem7250 knock-in mice, single ICV bolus, 4 weeks (Example 10)
Type: in vivo
Conditions: cortex; single ICV bolus 300 μg; 4 weeks post treatment; normalized to mouse Ppia
Strand notation (5' to 3'): a small letter for the sugar, then the base; units joined by * are phosphorothioate-linked, units joined directly phosphodiester-linked; [ ] holds rarer units or linkages, { } end groups; capitals alone tell only the bases. [ms] = mesyl phosphoramidate linkage; e = 2'-O-(2-methoxyethyl) (MOE); k = constrained ethyl (cEt); [5mC] = 5-methylcytosine; d = 2'-deoxy (DNA)
Please note: Y applies when APOE RNA (% control) Cortex is 60 % control or greater, and N applies otherwise.

1757572 (eA*e[5mC]eTeT*kG*kG*dT*dG[ms]dA[ms]dA[ms]dT*d[5mC]*dT*dT*dT*dA[ms]eT*eT*eA*eA; antisense) [Compound 1757572] = N
1778122 (eA*e[5mC]eTeTeG*eG*dT*dG[ms]dA[ms]dA*dT*d[5mC]*dT*dT*dT*dA[ms]kT*kT*eA*eA; antisense) [Compound 1778122] = N
1778117 (eA*e[5mC]eTeTeG*eG*dT*dG[ms]dA[ms]dA*dT*d[5mC]*dT*dT*dT*dA[ms]kT*eT*eA*eA; antisense) [Compound 1778117] = N
1746794 (k[5mC]*kT*kT*dG[ms]dG[ms]dT[ms]dG[ms]dA[ms]dA[ms]dT*d[5mC]*dT*dT*dT*dA[ms]dT*kT*dA[ms]kA*kA; antisense) [Compound 1746794] = Y
1778107: 6-10-4 MOE gapmer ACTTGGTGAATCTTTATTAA, linkages sooossszzsssssszsss (eA*e[5mC]eTeTeG*eG*dT*dG[ms]dA[ms]dA*dT*d[5mC]*dT*dT*dT*dA[ms]eT*eT*eA*eA) [compound 1778107] = Y

Decide: is the reported value of APOE RNA (% control) Cortex for 1778119 (eA*e[5mC]eTeTeG*eG*dT*dG[ms]dA[ms]dA*dT*d[5mC]*dT*dT*dT*dA[ms]kTeT*eA*eA; antisense) [Compound 1778119] equal to or greater than 60 % control?
N

Decide: is the reported value of APOE RNA (% control) Cortex for 1746790 (k[5mC]*dT[ms]kT*dG[ms]dG[ms]kT*dG[ms]dA[ms]dA[ms]dT*d[5mC]*dT*dT*dT*dA[ms]dT*kT*kA*dA[ms]kA; antisense) [Compound 1746790] equal to or greater than 60 % control?
N

Decide: is the reported value of APOE RNA (% control) Cortex for 1746787 (k[5mC]*kT*dT[ms]dG[ms]dG[ms]kT*dG[ms]dA[ms]dA[ms]dT*d[5mC]*dT*dT*dT*dA[ms]dT*kT*kA*dA[ms]kA; antisense) [Compound 1746787] equal to or greater than 60 % control?
Y

Decide: is the reported value of APOE RNA (% control) Cortex for 1746801 (k[5mC]*dT[ms]dT[ms]kG*kG*dT[ms]dG[ms]dA[ms]dA[ms]dT*d[5mC]*dT*dT*dT*dA[ms]dT*kT*dA[ms]kA*kA; antisense) [Compound 1746801] equal to or greater than 60 % control?
N

Recorded values, source patent US20250353873A1.
